Biological target: T1, CD71 apical domain (human, UniProt P02786 189-383, limits assumed)
T1 construct: domain: apical domain
T1 sequence (P02786 189-383 limits assumed): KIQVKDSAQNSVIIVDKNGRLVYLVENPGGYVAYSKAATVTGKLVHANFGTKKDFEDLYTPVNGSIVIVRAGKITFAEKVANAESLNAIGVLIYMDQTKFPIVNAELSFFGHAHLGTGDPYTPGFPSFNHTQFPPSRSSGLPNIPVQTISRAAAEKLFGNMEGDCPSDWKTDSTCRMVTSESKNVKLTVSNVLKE
Assay: solution ELISA screen, signal ratio to HSA control
readout_kind: apical domain:HSA (ratio)

(a) SEQ ID NO 270 (designed binder, not shown: small tags and cut ends) MLPAPKNLVVSRVTEDSARLSWTAPDAAFDSFAIEYCETKMCGEAIVLTVPGSERSYDLTGLKPGTEYRVPIPGVKGGTASLPLSAIFTT
(b) SEQ ID NO 222 (designed binder, not shown: small tags and cut ends) MLPAPKNLVVSRVTEDSARLSWTAPDAAFDSFFIGYLEPQPPGEAIVLDVPGSERSYDLTGLKPGTEYNVTIQGVKGGFPSHPLAAAFTT
(c) SEQ ID NO 211 (designed binder, not shown: small tags and cut ends) MLPAPKNLVVSRVTEDSARLSWTAPDAAFDSFYIAYAEPRPDGEAIQLHVPGSERSYDLTGLKPGTEYSVLIHGVKGGLLSSPLVAIFTT
(d) SEQ ID NO 242 (designed binder, not shown: small tags and cut ends) MLPAPKNLVVSRVTEDSARLSWTAPDAAFDSFYIAYAEPRPDGEAIQLLVPGSERSYDLTGLKPGTEYSVLIHGVKGGLLSSPLYAAFTT
Incoming: In ascending order of recorded apical domain:HSA, list the binders from the set above. Respond with an ordered listing of the labels, as requested.
Outgoing: b, a, d, c
(b: 69 ratio, a: 101 ratio, d: 241 ratio, c: 363 ratio)

Entry source: patent US20220332795A1
